experiment: Distribution coefficient, log D of the compound by shake flask method; type: physicochemical; conditions: octanol/water
REPORTED ENDPOINT: logD

Here are 2 compounds together with their reported answers.
COMPOUND | ASSAY RESULT
Cc1nn(C)c(Oc2ccccc2)c1C(=O)N1CCCCC1c1cccnc1 (stereo not drawn) | 2.4
Cc1nn(C)c(Oc2cccnc2)c1C(=O)N1CCCCC1c1cccnc1 (stereo not drawn) | 1.4

Consider now this further compound.
Exam item: Data request, read-out logD, for Cc1ccc(N(C)C(=O)c2c(-c3ccccc3Cl)noc2C)cc1Cl
Marked response: 3.6

---

target: G-protein coupled bile acid receptor 1 (Homo sapiens); assay: Agonist activity at doxycycline-promoter regulated overexpressed human TGR5 receptor in CHO cells assessed as elevation of cAMP level by induced-cAMP assay; format: functional, cell-based
REPORTED ENDPOINT: EC50 (µM)
Field format: number, assumed µM, no unit text.

Exam item: Data request, read-out EC50, for Cc1nn(C)c(Oc2ccccc2)c1C(=O)N1CCCCC1c1cccnc1 (configuration not stated)
Marked response: 0.92

---

Biological target: G-protein coupled bile acid receptor 1 (Homo sapiens, UniProt Q8TDU6)
Sequence (Q8TDU6 whole entry): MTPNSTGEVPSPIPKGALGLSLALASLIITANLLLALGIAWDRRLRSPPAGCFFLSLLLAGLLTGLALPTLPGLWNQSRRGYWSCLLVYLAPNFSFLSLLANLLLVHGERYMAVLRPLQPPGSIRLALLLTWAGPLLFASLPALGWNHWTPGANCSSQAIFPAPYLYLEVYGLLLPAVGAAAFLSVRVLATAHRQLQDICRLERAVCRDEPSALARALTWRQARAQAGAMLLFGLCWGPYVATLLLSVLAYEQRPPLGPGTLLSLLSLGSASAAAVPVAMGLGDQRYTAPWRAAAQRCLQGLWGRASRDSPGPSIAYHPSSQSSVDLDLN
Test: Agonist activity at human TGR5 receptor in CHO cells assessed as elevation of cAMP level by uninduced cAMP detection method in absence of doxycycline
Assay type: functional, cell-based
REPORTED ENDPOINT: EC50

COMPOUND | EC50
Cc1nn(C)c(Oc2cccnc2)c1C(=O)N1CCCCC1c1cccnc1 (configuration not stated) | > 10 µM

Consider now this further compound.
Exam item: Data request, read-out EC50, for Cc1nn(C)c(Oc2ccccc2)c1C(=O)N1CCCCC1c1cccnc1 (configuration not stated)
Marked response: > 10 µM
